# credit: patent US20260069558A1

test.name: Solubility (Test F)
Format: physicochemical
study.conditions: arithmetic mean
assay.metric: solubility (µM)
Numbers only, in µM.

Q: If you can, please state the reported solubility value of COc1cc(C#N)c(O[C@H]2CC[C@@](C)(C(=O)O)CC2)cc1C(=O)N[C@@H]1[C@H]2CC[C@H](C2)[C@@H]1C(=O)NCC(C)(C)C [Example 5] .
A: 910

----------
test.name: Human Liver Microsomal Stability (Test C)
Format: in vitro ADME
study.conditions: human liver microsomes; arithmetic mean
Procedure: Human Liver Microsomal Stability (Test C) The assay was conducted according to the Human Liver Microsome Stability Assay described in pages 170-174 of Wemevik, J. et al., “A Fully Integrated Assay Panel for Early Drug Metabolism and Pharmacokinetics Profiling”, Assay and Drug Development Technologies, 2020, 18(4), 157-179. Data are reported in Table 1 as CLint (μl/min/mg protein). Where the assay was run multiple times for the same compound, the arithmetic mean is reported.
assay.metric: microsomal CLint

Q: If you can, please state the reported microsomal CLint value of COc1cc(C#N)c(O[C@H]2CC[C@@](C)(C(=O)O)CC2)cc1C(=O)N[C@@H]1[C@H]2CC[C@H](C2)[C@@H]1C(=O)NCC(C)(C)C .
A: < 3 µL/min/mg
